Consider the following compounds; for each one, report its melting point.

Prompt: Assign melting point to the following record: `COC(=O)c1ccc(C(=O)NCc2ccc(C(=O)Nc3ccccc3N)cc2)cc1`
Completion: 204 to 209 °C (dec.)

Prompt: Assign melting point to the following record: `CC(=O)Nc1ccc(Nc2nnc(Cc3ccncc3)c3ccccc23)cc1`
Completion: > 270 °C

Prompt: Assign melting point to the following record: `CC(C)c1ccc(Nc2nnc(Cc3ccncc3)c3ccccc23)cc1.Cl.Cl`
Completion: > 250 °C

Prompt: Assign melting point to the following record: `Nc1ccccc1NC(=O)c1ccc(-n2cc(COc3ccc([N+](=O)[O-])cc3)oc2=O)cc1`
Completion: 162 to 164 °C

Prompt: Assign melting point to the following record: `Nc1ccccc1NC(=O)c1ccc(-n2cc(COc3cccnc3)oc2=O)cc1`
Completion: 199 to 201 °C

Prompt: Assign melting point to the following record: `Cl.Nc1ccc2c(Cc3ccncc3)nnc(Nc3ccc(Cl)cc3)c2c1`
Completion: > 300 °C

Prompt: Assign melting point to the following record: `Cc1ncsc1CCOC(=O)NCc1ccc(C(=O)Nc2ccccc2N)cc1`
Completion: 130 to 133 °C

Values from patent US20050054647A1
